Target: hERG (Homo sapiens, UniProt Q12809)
Assay: in vitro
Type: cell-based
Settings: human; blocker; FLIPR Tetra; up to 30 µM; read-out: RC50 (the source's name)
Ends that are not written are not given here.
ATTRIBUTE MEASURED: IC50

I'm curious: which IC50 was measured for APWHLSSQYSRT [CTP] tested on hERG (Homo sapiens, UniProt Q12809)? > 30 µM

---

Molecular target: HEK-Nav1.5 (Late, Antagonist) (Homo sapiens)
Construct: CYL7004QB2DR (late); host or cells: HEK
Format: cell-based
Settings: antagonist mode; Qube APC (1 conc.); late current, 50nM ATXII; read-out: Estimated IC50 (reference compound)
ATTRIBUTE MEASURED: IC50
Returns: string containing the numeric result and its unit.

I have this compound here, COc1ccccc1OCC(O)CN1CCN(CC(=O)Nc2c(C)cccc2C)CC1 (stereo not shown) [Ranolazine, reference compound] , and I need its recorded IC50. 72.5 µM

---

Target: CAV1.2 (Homo sapiens)
Sequence (Q13936 whole entry): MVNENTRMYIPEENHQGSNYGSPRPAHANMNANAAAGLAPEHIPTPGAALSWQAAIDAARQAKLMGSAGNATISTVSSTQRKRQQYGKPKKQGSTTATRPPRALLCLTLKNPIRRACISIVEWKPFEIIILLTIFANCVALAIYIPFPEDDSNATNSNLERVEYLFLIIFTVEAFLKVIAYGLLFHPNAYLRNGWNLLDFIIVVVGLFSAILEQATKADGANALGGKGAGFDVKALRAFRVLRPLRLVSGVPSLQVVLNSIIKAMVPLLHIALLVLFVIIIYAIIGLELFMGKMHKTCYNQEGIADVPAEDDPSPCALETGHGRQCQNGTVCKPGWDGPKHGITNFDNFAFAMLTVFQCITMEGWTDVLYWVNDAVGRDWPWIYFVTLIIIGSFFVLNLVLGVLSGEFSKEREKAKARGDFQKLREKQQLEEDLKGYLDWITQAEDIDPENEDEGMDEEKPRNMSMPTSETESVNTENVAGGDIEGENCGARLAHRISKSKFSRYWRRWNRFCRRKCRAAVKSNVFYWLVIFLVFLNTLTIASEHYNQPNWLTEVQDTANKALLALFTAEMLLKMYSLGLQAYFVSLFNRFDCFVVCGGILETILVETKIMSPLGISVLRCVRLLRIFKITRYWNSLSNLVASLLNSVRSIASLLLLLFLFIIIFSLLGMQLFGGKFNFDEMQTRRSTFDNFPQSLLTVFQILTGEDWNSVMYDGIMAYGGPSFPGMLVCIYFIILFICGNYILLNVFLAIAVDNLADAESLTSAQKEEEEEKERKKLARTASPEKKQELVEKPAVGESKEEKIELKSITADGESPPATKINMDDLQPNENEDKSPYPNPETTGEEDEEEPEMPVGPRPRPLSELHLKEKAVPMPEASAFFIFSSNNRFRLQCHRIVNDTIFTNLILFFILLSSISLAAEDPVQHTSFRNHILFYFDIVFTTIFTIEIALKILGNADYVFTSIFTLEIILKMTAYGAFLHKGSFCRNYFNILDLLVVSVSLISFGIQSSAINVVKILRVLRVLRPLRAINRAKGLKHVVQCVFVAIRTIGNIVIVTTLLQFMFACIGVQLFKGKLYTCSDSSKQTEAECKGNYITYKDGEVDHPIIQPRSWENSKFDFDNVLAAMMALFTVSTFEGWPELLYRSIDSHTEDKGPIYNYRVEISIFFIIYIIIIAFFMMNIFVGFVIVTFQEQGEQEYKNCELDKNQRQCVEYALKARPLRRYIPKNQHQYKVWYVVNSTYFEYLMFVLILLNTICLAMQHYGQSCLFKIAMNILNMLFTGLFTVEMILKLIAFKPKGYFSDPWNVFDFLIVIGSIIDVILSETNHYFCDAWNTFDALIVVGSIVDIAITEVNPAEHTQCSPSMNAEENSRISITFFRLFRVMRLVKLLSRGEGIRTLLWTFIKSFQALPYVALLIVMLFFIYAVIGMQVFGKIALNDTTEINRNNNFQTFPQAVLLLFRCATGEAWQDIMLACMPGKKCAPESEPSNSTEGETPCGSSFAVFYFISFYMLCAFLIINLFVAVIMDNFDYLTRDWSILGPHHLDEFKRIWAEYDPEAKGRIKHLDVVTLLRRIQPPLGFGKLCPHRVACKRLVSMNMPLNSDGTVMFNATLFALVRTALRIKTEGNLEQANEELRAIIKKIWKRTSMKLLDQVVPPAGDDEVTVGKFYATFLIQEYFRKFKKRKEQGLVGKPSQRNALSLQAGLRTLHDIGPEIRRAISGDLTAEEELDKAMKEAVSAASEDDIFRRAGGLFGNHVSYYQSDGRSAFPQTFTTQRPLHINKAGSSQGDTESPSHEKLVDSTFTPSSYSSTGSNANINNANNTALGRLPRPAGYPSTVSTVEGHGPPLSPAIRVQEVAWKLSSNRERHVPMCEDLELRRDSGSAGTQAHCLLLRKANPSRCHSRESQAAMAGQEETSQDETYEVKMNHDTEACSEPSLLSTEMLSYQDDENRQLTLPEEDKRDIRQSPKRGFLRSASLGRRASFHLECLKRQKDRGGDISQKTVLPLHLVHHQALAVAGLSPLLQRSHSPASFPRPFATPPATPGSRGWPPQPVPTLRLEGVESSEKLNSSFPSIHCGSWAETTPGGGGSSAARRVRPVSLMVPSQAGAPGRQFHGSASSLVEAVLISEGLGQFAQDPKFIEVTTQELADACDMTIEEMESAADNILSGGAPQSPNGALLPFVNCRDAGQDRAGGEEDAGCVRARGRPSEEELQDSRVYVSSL
Sequence (Q08289 whole entry partner): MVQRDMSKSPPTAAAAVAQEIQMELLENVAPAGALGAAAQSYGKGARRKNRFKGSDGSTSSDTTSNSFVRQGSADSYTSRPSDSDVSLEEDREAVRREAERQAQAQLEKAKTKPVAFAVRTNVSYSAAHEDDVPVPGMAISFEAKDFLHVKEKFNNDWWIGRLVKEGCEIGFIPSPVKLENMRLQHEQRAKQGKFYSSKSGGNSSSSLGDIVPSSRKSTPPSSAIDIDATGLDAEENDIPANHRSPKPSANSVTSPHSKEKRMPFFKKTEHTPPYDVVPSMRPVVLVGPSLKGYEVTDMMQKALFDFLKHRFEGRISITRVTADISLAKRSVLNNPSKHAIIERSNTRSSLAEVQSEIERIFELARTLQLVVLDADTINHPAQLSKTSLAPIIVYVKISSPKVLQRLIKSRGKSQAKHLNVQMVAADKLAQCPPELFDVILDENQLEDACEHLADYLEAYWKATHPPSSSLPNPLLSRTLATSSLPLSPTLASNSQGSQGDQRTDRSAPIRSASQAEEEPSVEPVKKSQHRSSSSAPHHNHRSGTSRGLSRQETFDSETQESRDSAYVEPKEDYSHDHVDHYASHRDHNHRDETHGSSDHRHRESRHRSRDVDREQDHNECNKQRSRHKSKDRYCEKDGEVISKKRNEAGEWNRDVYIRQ
Sequence (P54289 25-956 partner limits assumed): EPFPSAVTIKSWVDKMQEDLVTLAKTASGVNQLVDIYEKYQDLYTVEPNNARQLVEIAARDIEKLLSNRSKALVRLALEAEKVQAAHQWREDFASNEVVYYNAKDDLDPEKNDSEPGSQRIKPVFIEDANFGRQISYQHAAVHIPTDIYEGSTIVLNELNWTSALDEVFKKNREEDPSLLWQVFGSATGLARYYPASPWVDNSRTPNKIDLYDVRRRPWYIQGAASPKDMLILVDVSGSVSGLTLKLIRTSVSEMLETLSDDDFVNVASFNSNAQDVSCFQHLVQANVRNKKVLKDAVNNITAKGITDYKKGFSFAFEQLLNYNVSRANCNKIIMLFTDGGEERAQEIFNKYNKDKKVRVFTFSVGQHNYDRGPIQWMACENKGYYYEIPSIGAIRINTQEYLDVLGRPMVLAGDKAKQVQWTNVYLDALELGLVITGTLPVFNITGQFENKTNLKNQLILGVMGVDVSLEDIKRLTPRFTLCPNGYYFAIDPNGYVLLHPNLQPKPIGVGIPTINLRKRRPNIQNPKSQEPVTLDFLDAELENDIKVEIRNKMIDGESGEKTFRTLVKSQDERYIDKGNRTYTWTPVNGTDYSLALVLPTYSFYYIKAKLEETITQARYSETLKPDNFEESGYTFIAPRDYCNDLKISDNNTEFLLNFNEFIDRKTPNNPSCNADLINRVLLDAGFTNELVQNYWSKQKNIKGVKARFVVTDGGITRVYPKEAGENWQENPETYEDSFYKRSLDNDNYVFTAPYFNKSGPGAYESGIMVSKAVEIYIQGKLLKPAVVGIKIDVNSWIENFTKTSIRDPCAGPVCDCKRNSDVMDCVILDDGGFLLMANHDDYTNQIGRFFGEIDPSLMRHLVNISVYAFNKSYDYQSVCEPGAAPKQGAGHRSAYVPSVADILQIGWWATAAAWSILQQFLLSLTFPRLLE
Sequence (P54289 957-1103 partner limits assumed): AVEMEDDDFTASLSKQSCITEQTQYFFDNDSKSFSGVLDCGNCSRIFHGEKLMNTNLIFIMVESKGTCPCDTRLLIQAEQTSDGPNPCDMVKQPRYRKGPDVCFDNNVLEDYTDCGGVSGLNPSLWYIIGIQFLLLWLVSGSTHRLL
Experiment: in vitro
Assay type: cell-based
Conditions: blocker; FLIPR Tetra; up to 30 µM; read-out: RC50 (the source's name)
Ends that are not written are not given here.
ATTRIBUTE MEASURED: IC50

Recorded IC50 of APWHLSSQYSRT [CTP] , please. > 30 µM

---

Biological target: NAV1.5 (Homo sapiens, UniProt Q14524)
Assay: in vitro
Format: cell-based
Details: blocker; FLIPR Tetra; up to 30 µM; read-out: RC50 (the source's name)
Ends that are not written are not given here.
ATTRIBUTE MEASURED: IC50

Bench note: what IC50 did APWHLSSQYSRT [CTP] show? > 30 µM
